The reader will find reported z-score values listed item by item below.
Assay: basal S. cerevisiae growth modulation, no modifier, primary screen, OD600, strain BY4716, 24 h, basal condition (AID 1173)
Details: OD600, 24 h, higher = more signal, called active from +8 up or from −8 down
Provide a numeric answer; units are not to be included.

Some compounds with recorded z-score:
{"smilesRecord": "COCCCNC(=O)[C@@H]1c2ccccc2C(=O)N(C2CCCCC2)[C@H]1c1ccc(CO)cc1", "measuredResult": -0.32}
{"smilesRecord": "CN(C)CCCC[C@@H]1NC(=O)[C@H]2C[C@@H](C(=O)NCc3ccc(F)cc3)[C@@H](c3ccc(O)cc3)N2C1=O", "measuredResult": -0.549}
{"smilesRecord": "COCCOC(=O)N1C(=O)[C@@]2(c3cc(C#CCCO)ccc31)[C@H](c1ccc(O)cc1)N1[C@H](c3ccccc3)[C@H](c3ccccc3)OC(=O)[C@H]1[C@@H]2C(=O)N1CCc2cc(OC)c(OC)cc2C1", "measuredResult": 0.537}
{"smilesRecord": "CC(C)C[C@@H]1NC(=O)[C@@H]2C[C@H](C(=O)NCCCC[N+](C)(C)C)[C@H](c3ccc(O)cc3)N2C1=O", "measuredResult": 0.166}
{"smilesRecord": "COCCOC(=O)N1C(=O)[C@@]2(c3cc(C#CC4(O)CCCCCC4)ccc31)[C@H](c1ccc(OCCO)cc1)N1[C@H](c3ccccc3)[C@H](c3ccccc3)OC(=O)[C@H]1[C@@H]2C(=O)N1CCCCCCC1", "measuredResult": 0.973}

Note: attention shifts to another entry.
May I ask what z-score has been recorded for COc1ccc([Si](C)(C)[C@@H]2[C@@H](CCO)O[C@]3(C(=O)N(Cc4ccccc4)c4ccc(N5C(=O)c6ccccc6Oc6ccccc65)cc43)[C@H]2C)cc1 ?
1.84
